Test system: UACC-62
assay.method.text: NCI tumour cell line growth inhibition, 48 h
Counter-ions that a name gives are not always drawn. The source made the active and inactive calls. Cut-off read from the data, not from the text of the source: active = GI50 up to about 1.1 µM and inactive = higher. Where a SMILES comes first, the peptide text is derived from it. [ ]: non-standard residue; d: D form. The star is where a group is joined. Iva = CC[C](C)(N)C(=O)O; Boc = CC(C)(C)OC(=O)*; X54 = C1CCC(=NO*)C1
Possible outcomes: yes = active, no = inactive

O=C1CSC(c2cccs2)N1c1nc2cc3sc(N4C(=O)CSC4c4cccs4)nc3cc2s1 (centres undefined)    no
CCOC(=O)C1=C(C)N(C2OC(COC(C)=O)C(OC(C)=O)C(OC(C)=O)C2OC(C)=O)C(=O)NC1c1ccccc1 (centres undefined)    no
CCCCc1ccc(N2C(=O)c3cc([N+](=O)[O-])cnc3S2(=O)=O)cc1    no
CC1(C)[C@H](O)CC[C@]2(C)C3=CC[C@@]4(C)[C@@H]5C[C@](C)(CO)CC[C@]5(C)CC[C@]4(C)C3=CC[C@@H]12    no
O=C(Oc1cc(=O)c(OC(=O)c2ccccc2)co1)c1ccccc1    no
CCOc1ccc(NCC2CC/C(=C\c3ccc(Cl)cc3)C2=O)cc1 (centres undefined)    no
O=C1[C@@H](O)[C@@H]2CCCC[C@@]23CCCN13    no
COc1ccc(C(=C[N+](=O)[O-])c2ccc(OC)cc2)cc1    no
COc1ccc(C[P+]2(c3ccccc3)CCCCC2)cc1.O=[N+]([O-])c1ccc(C[P+]2(c3ccccc3)CCCCC2)cc1.[O-][Cl+3]([O-])([O-])[O-].[O-][Cl+3]([O-])([O-])[O-]    no
Cc1ccc(Cc2c(=O)[nH]nc3ccccc23)cc1    no
CCOC(=O)N/N=C(\CC)OCC    no
CN(C)CCOc1ccc([N+](=O)[O-])c2cccnc12    no
Cc1oc2nc(N(C)C)n3nnnc3c2c1C    no
CCOC(=O)c1nc(-c2ccccc2)oc1OCC    no
NCCSSCCN [CYSTAMINE HYDROCHLORIDE]    no
CSc1cc(=O)n2c3ccccc3c3ccnc1c32    no
CNC(=O)c1ccccc1[S+]1c2cccc3cccc(c23)C(=O)N1C (centres undefined)    no
O=C1c2cc([N+](=O)[O-])cnc2S(=O)(=O)N1c1ccc(Br)cc1    no
CC(CCC#N)(CCC#N)C(=O)CC(O)(C(F)(F)F)C(F)(F)F    no
COc1cc(CC2c3cc(OC)c(OC)cc3CCN2C)c(C(=O)O)cc1OC (centres undefined)    no
CC1(C)CC(=O)c2c([nH]c(=S)c(C#N)c2-c2ccc(Br)cc2)C1    no
COc1cc(/C=C/C(=N\NC(=O)c2ccccc2)c2sc(Nc3ccc(Cl)c(Cl)c3)nc2C)ccc1O    no
COC(=O)CCC(C)[C@H]1CCC2C3C(C[C@H](OC(C)=O)[C@@]21C)[C@@]1(C)CCC2(C[C@H]1C[C@H]3OC(C)=O)OOC1(CCC(C)CC1)OO2 (some centres undefined)    yes
COc1ccc2c(N=[N+]=[N-])c(-c3ccccc3)c(=O)oc2c1    no
COc1ccc(CCN(C)C2CCC(C#N)(c3ccc(OC)c(OC)c3)CC2)cc1OC (centres undefined)    no
Cc1n(-c2ccccc2)c2c([n+]1Cc1ccc([N+](=O)[O-])cc1)C(=O)c1ccccc1C2=O    no
CCOC(=O)C1(Cc2ccc3c(c2)CCC3)Cc2cc3c(cc2C1=O)CCC3 (centres undefined)    no
CC1(C)CC2(C)ON=C(c3ccccc3)N2c2ccccc2N1 (centres undefined)    no
CC1=CC(C)C/C=C/C2C3OC3(C)C(C)C3C(Cc4c[nH]c5ccccc45)NC(=O)C23C(=O)C=CC(=O)C1O (centres undefined)    no
CN(C)CCNC(=O)c1ccc(Cl)c2cc3ccccc3nc12    yes
CCCN(C(=O)c1c(Cl)nnc(Cl)c1C(=O)c1cc(Cl)nnc1Cl)c1cc(Cl)nnc1Cl    no
COc1ccc(/C=C\c2cc(OC)c(OC)c(OC)c2)cc1OC(=O)NCCN(C)C    yes
O=N/N=c1\o[n-][n+](CCc2ccccc2)c1Cc1/c(=N/N=O)o[n-][n+]1CCc1ccccc1    no
COc1cc2cc3c4c(cc(OC)c(OC)c4c2cc1OC)CCN3C(=O)CCCC(=O)O    no
O=C(O)c1nc2ccc(C(F)(F)F)cc2nc1Nc1ccc(Cl)c(Cl)c1    no
COc1ccc(NC(=O)C2=CC(=O)c3ccc(O)cc3C2=O)c(OC)c1    no
COc1ccc(/C=C2\CCC(C)C3=C(c4ccc(OC)c(OC)c4)C(C#N)=C(N)OC32)cc1OC (centres undefined)    no
CCOC(=O)C1(C)CCC(C(=O)OC)C1=O (centres undefined)    no
CCC(C)(NC(=O)C(C)NC(=O)OC(C)(C)C)C(=O)NC(C)C(=O)NC(C)(CC)C(=O)ON=C1CCCC1 (centres undefined) (Boc-A[Iva]A[Iva]-X54; configuration not given here)    no
